# Tested on: HCC827 (EGFR Del) NSCLC cells
# Protocol text: Cell proliferation assay (MTS cell viability)
# Type: cell-based
# Run parameters: Homo sapiens, 72 h; HCC827 cells, 3 days of exposure, MTS
# IC50 annotations

Molecule smiles	Output unit	Rel	IC50
COc1cc(N2CCOCC2)ccc1Nc1ncc(Cl)c(Nc2ccccc2C(=O)C(=O)N(C)C)n1	µM	=	1.94
C=C(CN(C)CCN(C)C)C(=O)Nc1ccc(OC)c(Nc2ncc(Cl)c(Nc3ccccc3C(=O)C(=O)N(C)C)n2)c1	µM	=	0.02
COc1cc(N2CCC(N(C)C)CC2)ccc1Nc1ncc(Cl)c(Nc2ccccc2C(=O)C(=O)NC2CC2)n1	µM	>	3
COc1cc(N2CCN(C)CC2)ccc1Nc1ncc(Cl)c(Nc2ccccc2C(=O)C(=O)N(C)C)n1	µM	=	1.63

====

# Tested on: HCC827 (EGFR Del) NSCLC cells
# Protocol text: Cell proliferation assay (MTS cell viability)
# Type: cell-based
# Run parameters: Homo sapiens, 72 h; HCC827 cells, 3 days of exposure, MTS
pIC50: −log10 of the molar value.

Molecule smiles	pIC50
C=CC(=O)Nc1cc(Nc2ncc(Cl)c(Nc3ccccc3C(=O)C(=O)NC)n2)c(F)cc1OC	5.92
COc1cc(N2CCC(N(C)C)CC2)ccc1Nc1ncc(C(F)(F)F)c(Nc2ccccc2C(=O)C(=O)N2CCOCC2)n1	< 5.52
COc1cc(N2CCN(C(C)=O)CC2)ccc1Nc1ncc(Cl)c(Nc2ccccc2C(=O)C(=O)N2CCOCC2)n1	< 5.52
C=CC(=O)N1CCC(NC(=O)C(=O)c2ccccc2Nc2nc(Nc3ccc(F)c(OC)c3)ncc2Cl)CC1	< 5.52

====

# Study target: EGFR (T790M, L858R) (h) (Homo sapiens (Human), UniProt P00533, L858R/T790M)
# Sequence (P00533 25-1210 T790M/L858R): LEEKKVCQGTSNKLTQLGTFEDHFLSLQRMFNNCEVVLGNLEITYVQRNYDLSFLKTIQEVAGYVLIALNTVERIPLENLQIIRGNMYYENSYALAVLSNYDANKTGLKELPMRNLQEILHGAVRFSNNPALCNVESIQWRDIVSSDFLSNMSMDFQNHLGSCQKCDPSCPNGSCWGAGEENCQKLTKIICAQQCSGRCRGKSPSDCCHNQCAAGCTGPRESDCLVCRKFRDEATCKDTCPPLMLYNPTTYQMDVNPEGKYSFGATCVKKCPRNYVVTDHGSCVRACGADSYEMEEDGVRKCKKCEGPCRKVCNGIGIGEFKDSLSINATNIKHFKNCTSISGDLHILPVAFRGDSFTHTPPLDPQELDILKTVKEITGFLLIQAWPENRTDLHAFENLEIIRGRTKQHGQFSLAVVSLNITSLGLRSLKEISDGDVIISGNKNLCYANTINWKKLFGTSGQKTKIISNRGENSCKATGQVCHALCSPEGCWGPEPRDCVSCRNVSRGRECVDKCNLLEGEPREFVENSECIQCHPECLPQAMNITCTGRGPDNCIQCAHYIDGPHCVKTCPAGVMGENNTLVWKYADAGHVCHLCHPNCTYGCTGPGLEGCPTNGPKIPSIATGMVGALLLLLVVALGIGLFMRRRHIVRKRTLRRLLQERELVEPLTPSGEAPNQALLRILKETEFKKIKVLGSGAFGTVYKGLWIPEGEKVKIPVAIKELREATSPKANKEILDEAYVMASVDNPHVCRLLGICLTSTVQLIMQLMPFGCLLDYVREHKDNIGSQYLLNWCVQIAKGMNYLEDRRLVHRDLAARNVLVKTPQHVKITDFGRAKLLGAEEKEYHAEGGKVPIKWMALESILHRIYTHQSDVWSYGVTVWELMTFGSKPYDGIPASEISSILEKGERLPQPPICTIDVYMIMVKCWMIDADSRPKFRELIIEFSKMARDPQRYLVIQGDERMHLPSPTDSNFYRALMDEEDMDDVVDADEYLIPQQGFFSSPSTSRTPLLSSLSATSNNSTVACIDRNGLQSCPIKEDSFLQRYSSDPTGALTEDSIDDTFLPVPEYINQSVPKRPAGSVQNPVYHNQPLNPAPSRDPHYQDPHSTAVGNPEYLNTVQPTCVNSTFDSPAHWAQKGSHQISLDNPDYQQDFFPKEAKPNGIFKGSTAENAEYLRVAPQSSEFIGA
# Protocol text: Kinase assay, single dose inhibition (Millipore, 33P-ATP filter binding)
# Assay type: biochemical
# Run parameters: 0.1 μM test compound, 10 μM ATP; remaining activity relative to DMSO control = 100%
# Activity (control) % EGFR (T790M, L858R) (h) annotations
Measured attribute: Activity (control) % EGFR (T790M, L858R) (h) (%)

Compound	Study target	Output unit	Value measured
COc1ccc(NC(=O)/C=C/CN(C)C)cc1Nc1ncc(Cl)c(Nc2ccccc2C(=O)C(=O)N(C)C)n1 [Example 80]	EGFR (T790M, L858R) (h) (Homo sapiens (Human), UniProt P00533, L858R/T790M)	%	7
CCN(CC)C(=O)C(=O)c1ccccc1Nc1nc(Nc2ccc(N3CCN(C)CC3)c(OC)c2)ncc1Cl [Example 130]	EGFR (T790M, L858R) (h) (Homo sapiens (Human), UniProt P00533, L858R/T790M)	%	22
COc1cc(Nc2ncc(Cl)c(Nc3ccccc3C(=O)C(=O)N(C)C)n2)ccc1N1CCN(C)CC1 [Example 61]	EGFR (T790M, L858R) (h) (Homo sapiens (Human), UniProt P00533, L858R/T790M)	%	13
C=CC(=O)Nc1ccc(OC)c(Nc2ncc(Cl)c(Nc3ccccc3C(=O)C(=O)N3CCN(C)CC3)n2)c1 [Example 89]	EGFR (T790M, L858R) (h) (Homo sapiens (Human), UniProt P00533, L858R/T790M)	%	1
CN(C)C/C=C/C(=O)Nc1cccc(Nc2ncc(Cl)c(Nc3ccccc3C(=O)C(=O)N(C)C)n2)c1 [Example 114]	EGFR (T790M, L858R) (h) (Homo sapiens (Human), UniProt P00533, L858R/T790M)	%	8
C=C(CN1CCCC1)C(=O)Nc1ccc(OC)c(Nc2ncc(Cl)c(Nc3ccccc3C(=O)C(=O)N(C)C)n2)c1 [Example 97]	EGFR (T790M, L858R) (h) (Homo sapiens (Human), UniProt P00533, L858R/T790M)	%	6
C=C(CN1CCOCC1)C(=O)Nc1cccc(Nc2ncc(Cl)c(Nc3ccccc3C(=O)C(=O)N(C)C)n2)c1 [Example 112]	EGFR (T790M, L858R) (h) (Homo sapiens (Human), UniProt P00533, L858R/T790M)	%	1

====

# Study target: EGFR (L858R) (h) (Homo sapiens (Human), UniProt P00533, L858R)
# Sequence (P00533 25-1210 L858R): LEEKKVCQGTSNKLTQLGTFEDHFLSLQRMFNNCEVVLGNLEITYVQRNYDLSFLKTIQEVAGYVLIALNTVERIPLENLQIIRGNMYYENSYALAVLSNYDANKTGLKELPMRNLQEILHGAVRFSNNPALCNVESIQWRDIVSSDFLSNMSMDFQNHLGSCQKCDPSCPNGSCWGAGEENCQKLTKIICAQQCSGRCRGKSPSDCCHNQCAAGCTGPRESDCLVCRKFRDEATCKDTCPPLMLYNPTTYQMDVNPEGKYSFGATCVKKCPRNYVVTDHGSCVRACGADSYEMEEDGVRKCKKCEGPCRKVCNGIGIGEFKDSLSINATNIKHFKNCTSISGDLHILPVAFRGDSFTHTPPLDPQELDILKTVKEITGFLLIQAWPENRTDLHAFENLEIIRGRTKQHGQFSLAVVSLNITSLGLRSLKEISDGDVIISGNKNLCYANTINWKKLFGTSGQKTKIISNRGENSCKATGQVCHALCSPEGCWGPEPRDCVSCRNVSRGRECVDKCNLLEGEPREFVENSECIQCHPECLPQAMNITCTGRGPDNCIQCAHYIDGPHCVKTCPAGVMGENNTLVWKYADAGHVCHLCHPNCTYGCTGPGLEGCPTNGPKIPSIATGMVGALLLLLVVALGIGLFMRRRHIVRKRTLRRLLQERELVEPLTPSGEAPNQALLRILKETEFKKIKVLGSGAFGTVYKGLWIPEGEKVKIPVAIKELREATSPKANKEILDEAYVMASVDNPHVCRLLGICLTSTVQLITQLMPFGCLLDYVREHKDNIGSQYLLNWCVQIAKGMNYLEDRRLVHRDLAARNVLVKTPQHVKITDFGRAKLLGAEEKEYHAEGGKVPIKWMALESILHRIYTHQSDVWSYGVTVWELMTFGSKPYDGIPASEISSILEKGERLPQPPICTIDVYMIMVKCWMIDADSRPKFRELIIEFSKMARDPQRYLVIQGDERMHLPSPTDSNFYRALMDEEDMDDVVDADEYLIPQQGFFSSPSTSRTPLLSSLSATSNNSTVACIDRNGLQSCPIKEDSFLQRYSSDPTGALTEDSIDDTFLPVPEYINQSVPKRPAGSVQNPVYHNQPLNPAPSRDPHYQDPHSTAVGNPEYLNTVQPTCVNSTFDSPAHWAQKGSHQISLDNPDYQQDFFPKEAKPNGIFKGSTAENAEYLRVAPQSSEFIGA
# Protocol text: Kinase assay, single dose inhibition (Millipore, 33P-ATP filter binding)
# Assay type: biochemical
# Run parameters: 0.1 μM test compound, 10 μM ATP; remaining activity relative to DMSO control = 100%
Output true for records whose Activity (control) % EGFR (L858R) (h) is lower than 90%, false for records at or above 90%.

Molecule smiles	Study target	Category label
CN(C)C(=O)C(=O)c1ccccc1Nc1nc(Nc2ccc(F)c(NC(=O)CCN3CCOCC3)c2)ncc1Cl	EGFR (L858R) (h) (Homo sapiens (Human), UniProt P00533, L858R)	false
C=C(CN(C)C)C(=O)Nc1ccc(OC)c(Nc2ncc(Cl)c(Nc3ccccc3C(=O)C(=O)N(C)C)n2)c1	EGFR (L858R) (h) (Homo sapiens (Human), UniProt P00533, L858R)	true
C=C(CN1CCCC1)C(=O)Nc1ccc(OC)c(Nc2ncc(Cl)c(Nc3ccccc3C(=O)C(=O)N(C)C)n2)c1	EGFR (L858R) (h) (Homo sapiens (Human), UniProt P00533, L858R)	true
C=CC(=O)Nc1cc(Nc2ncc(Cl)c(Nc3ccccc3C(=O)C(=O)N(C)CCN(C)C)n2)ccc1OC	EGFR (L858R) (h) (Homo sapiens (Human), UniProt P00533, L858R)	true
C=CC(=O)Nc1cc(Nc2ncc(Cl)c(Nc3ccccc3C(=O)C(=O)N(C)C)n2)c(OC)cc1F	EGFR (L858R) (h) (Homo sapiens (Human), UniProt P00533, L858R)	false

====

# Activity (control) % EGFR (L858R) (h) annotations
# Study target: EGFR (L858R) (h) (Homo sapiens (Human), UniProt P00533, L858R)
# Protocol text: Kinase assay, single dose inhibition (Millipore, 33P-ATP filter binding)
# Assay type: biochemical
# Run parameters: 0.1 μM test compound, 10 μM ATP; remaining activity relative to DMSO control = 100%

Molecule smiles	Activity (control) % EGFR (L858R) (h), %
C=CC(=O)Nc1ccc(N2CCN(C)CC2)c(Nc2ncc(Cl)c(Nc3ccccc3C(=O)C(=O)N(C)C)n2)c1	103
CCC(=O)Nc1cc(Nc2ncc(Cl)c(Nc3ccccc3C(=O)C(=O)N(C)C)n2)ccc1OCCN(C)C	76
C=C(CN1CCCCC1)C(=O)Nc1ccc(OC)c(Nc2ncc(Cl)c(Nc3ccccc3C(=O)C(=O)N(C)C)n2)c1	37
C=C(CN(C)CCN(C)C)C(=O)Nc1ccc(OC)c(Nc2ncc(Cl)c(Nc3ccccc3C(=O)C(=O)N(C)C)n2)c1	47

====

# Activity (control) % EGFR (T790M, L858R) (h) annotations
# Study target: EGFR (T790M, L858R) (h) (Homo sapiens (Human), UniProt P00533, L858R/T790M)
# Protocol text: Kinase assay, single dose inhibition (Millipore, 33P-ATP filter binding)
# Assay type: biochemical
# Run parameters: 0.1 μM test compound, 10 μM ATP; remaining activity relative to DMSO control = 100%
Measured attribute: Activity (control) % EGFR (T790M, L858R) (h) (%)

Molecule smiles	Output unit	Value measured
C=CC(=O)Nc1cc(Nc2ncc(C)c(Nc3ccccc3C(=O)C(=O)N(C)C)n2)ccc1OC	%	41
COc1cc(N2CCC(N(C)C)CC2)ccc1Nc1ncc(Cl)c(Nc2ccccc2C(=O)C(N)=O)n1	%	2
COc1cc(N2CCN(C(C)=O)CC2)ccc1Nc1ncc(Cl)c(Nc2ccccc2C(=O)C(=O)N(C)C)n1	%	4
COc1ccc(NC(=O)/C=C/CN2CCOCC2)cc1Nc1ncc(Cl)c(Nc2ccccc2C(=O)C(=O)N(C)C)n1	%	2

====

# Test system: HCC827 (EGFR Del) NSCLC cells
# Protocol text: Cell proliferation assay (MTS cell viability)
# Format: cell-based
# Run parameters: Homo sapiens, 72 h; HCC827 cells, 3 days of exposure, MTS
# IC50 annotations

Molecule smiles	Rel	IC50 (µM)
C=CC(=O)Nc1ccc(OC)c(Nc2ncc(Cl)c(Nc3ccccc3C(=O)C(=O)N(C)C)n2)c1	=	0.02
COc1cc(N2CCC(N(C)C)CC2)ccc1Nc1ncc(Cl)c(Nc2ccccc2C(=O)C(=O)O)n1	>	3
COc1cc(N2CCN(C(C)=O)CC2)ccc1Nc1ncc(Cl)c(Nc2ccccc2C(=O)C(=O)N(C)C)n1	=	0.54
COc1cc(N2CCC(N(C)C)CC2)ccc1Nc1ncc(Cl)c(Nc2ccccc2C(=O)C(N)=O)n1	=	2.63
